Cited source: ChEMBL document CHEMBL1150336

# System: Haemophilus influenzae
# EXPERIMENT DESCRIPTION: Antibacterial activity against Haemophilus influenzae IID983 after 18 hrs by agar dilution method
# Assay type: functional
Listed here: items and their measured MIC.

Query: // query MIC value for entry C[C@H]1COc2c(N3C[C@H](CNC4CC4)[C@@H](F)C3)c(F)cc3c(=O)c(C(=O)O)cn1c23
Response: 8 ng/mL

Query: Next compound up: C[C@H]1CN(c2c(F)cc3c(=O)c(C(=O)O)cn4c3c2OC[C@@H]4CF)C[C@@H]1CNC1CC1
Response: 8 ng/mL

Query: Entry C[C@@H]1CN(c2c(F)cc3c(=O)c(C(=O)O)cn4c3c2OC[C@@H]4C)C[C@@H]1CNC1CC1 please
Response: 4 ng/mL

Query: Another compound to check: C[C@H]1CN(c2c(F)cc3c(=O)c(C(=O)O)cn4c3c2OC[C@@H]4C)C[C@@H]1CNC1CC1
Response: 8 ng/mL

Query: Also O=C(O)c1cn2c3c(c(N4CC[C@@H](CNC5CC5)C4)c(F)cc3c1=O)OC[C@@H]2CF ?
Response: 4 ng/mL

Query: Same question for C[C@H]1COc2c(N3CCN(C)CC3)c(F)cc3c(=O)c(C(=O)O)cn1c23.C[C@H]1COc2c(N3CCN(C)CC3)c(F)cc3c(=O)c(C(=O)O)cn1c23.O please.
Response: 8 ng/mL

Query: Now the same for O=C(O)c1cn2c3c(c(N4C[C@H](CNC5CC5)[C@H](F)C4)c(F)cc3c1=O)OC[C@@H]2CF
Response: 4 ng/mL

Query: Same thing, different compound: NC1CCN(c2c(F)cc3c(=O)c(C(=O)O)cn(C4CC4)c3c2Cl)C1 (stereo not drawn)
Response: ≤ 1 ng/mL

###

# Tested on: Pseudomonas aeruginosa
# EXPERIMENT DESCRIPTION: Antibacterial activity against Pseudomonas aeruginosa IID1210 after 18 hrs by agar dilution method
# Format: functional
MEASUREMENT TYPE: MIC (µg/mL)
Express your answer in µg/mL, writing the number without its unit.

Here are 4 compounds together with their reported answers.
| COMPOUND | MIC (µg/mL) |
| --- | --- |
| O=C(O)c1cn2c3c(c(N4C[C@H](CNC5CC5)[C@H](F)C4)c(F)cc3c1=O)OC[C@@H]2CF | 2 |
| C[C@H]1COc2c(N3C[C@H](CNC4CC4)[C@@H](F)C3)c(F)cc3c(=O)c(C(=O)O)cn1c23 | 4 |
| O=C(O)c1cn2c3c(c(N4CC[C@@H](CNC5CC5)C4)c(F)cc3c1=O)OC[C@@H]2CF | 2 |
| C[C@@H]1CN(c2c(F)cc3c(=O)c(C(=O)O)cn4c3c2OC[C@@H]4C)C[C@@H]1CNC1CC1 | 2 |

Query: Suppose we examine the compound C[C@H]1CN(c2c(F)cc3c(=O)c(C(=O)O)cn4c3c2OC[C@@H]4CF)C[C@@H]1CNC1CC1 ; what MIC value has been reported?
Response: 4

Query: For C[C@H]1CN(c2c(F)cc3c(=O)c(C(=O)O)cn4c3c2OC[C@@H]4C)C[C@@H]1CNC1CC1 then?
Response: 4

Query: Param item: C[C@@H]1CN(c2c(F)cc3c(=O)c(C(=O)O)cn4c3c2OC[C@@H]4CF)C[C@@H]1CNC1CC1
Response: 2

Query: Repeat for the following compound: CCNCC1CCN(c2c(F)cc3c(=O)c(C(=O)O)cn4c3c2OC[C@@H]4C)C1 (stereo partly drawn)
Response: 4

###

# ASSAYED SYSTEM: DNA gyrase (Staphylococcus aureus, UniProt P0A0K8+P20831)
# Sequence (P0A0K8 whole entry): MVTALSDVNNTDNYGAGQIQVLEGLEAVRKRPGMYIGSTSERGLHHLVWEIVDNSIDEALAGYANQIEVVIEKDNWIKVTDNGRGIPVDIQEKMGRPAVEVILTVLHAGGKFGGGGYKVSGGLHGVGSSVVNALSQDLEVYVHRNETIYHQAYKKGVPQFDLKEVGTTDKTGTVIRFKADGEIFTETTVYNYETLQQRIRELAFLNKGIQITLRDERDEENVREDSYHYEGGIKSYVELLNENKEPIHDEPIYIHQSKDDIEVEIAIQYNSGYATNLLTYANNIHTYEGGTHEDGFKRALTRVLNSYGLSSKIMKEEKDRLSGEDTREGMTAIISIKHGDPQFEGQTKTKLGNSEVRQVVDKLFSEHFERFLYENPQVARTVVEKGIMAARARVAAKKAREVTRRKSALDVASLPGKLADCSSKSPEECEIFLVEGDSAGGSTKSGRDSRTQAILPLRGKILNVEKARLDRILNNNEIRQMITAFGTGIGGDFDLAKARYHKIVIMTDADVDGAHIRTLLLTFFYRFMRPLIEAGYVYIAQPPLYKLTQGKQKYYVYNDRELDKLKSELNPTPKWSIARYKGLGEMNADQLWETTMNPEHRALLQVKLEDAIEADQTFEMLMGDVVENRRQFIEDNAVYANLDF
# Sequence (P20831 whole entry): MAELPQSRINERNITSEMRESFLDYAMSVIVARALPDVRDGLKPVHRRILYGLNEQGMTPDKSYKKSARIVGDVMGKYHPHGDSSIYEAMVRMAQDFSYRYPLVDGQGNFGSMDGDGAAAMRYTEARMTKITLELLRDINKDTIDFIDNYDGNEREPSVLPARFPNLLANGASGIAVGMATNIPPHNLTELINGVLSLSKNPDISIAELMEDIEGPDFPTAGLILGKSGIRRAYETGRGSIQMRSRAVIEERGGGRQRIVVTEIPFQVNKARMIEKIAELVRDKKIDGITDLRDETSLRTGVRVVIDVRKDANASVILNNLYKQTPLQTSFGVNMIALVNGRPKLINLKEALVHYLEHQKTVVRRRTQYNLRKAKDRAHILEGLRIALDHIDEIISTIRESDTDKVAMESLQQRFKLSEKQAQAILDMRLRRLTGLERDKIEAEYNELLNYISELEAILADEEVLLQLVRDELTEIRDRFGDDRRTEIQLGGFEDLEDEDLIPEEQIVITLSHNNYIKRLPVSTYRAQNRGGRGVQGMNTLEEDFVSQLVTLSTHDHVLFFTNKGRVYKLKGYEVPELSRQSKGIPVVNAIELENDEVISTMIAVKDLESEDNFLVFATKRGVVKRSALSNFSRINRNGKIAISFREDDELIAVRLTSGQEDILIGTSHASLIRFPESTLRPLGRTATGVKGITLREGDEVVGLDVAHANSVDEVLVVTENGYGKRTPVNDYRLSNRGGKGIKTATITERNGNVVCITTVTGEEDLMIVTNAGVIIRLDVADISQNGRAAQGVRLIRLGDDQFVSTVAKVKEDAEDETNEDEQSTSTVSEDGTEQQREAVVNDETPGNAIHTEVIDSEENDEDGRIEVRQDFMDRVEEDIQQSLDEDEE
# EXPERIMENT DESCRIPTION: Inhibition of quinoline-resistant Staphylococcus aureus MS5935 DNA gyrase-mediated supercoiling activity
# Format: protein-complex assay
MEASUREMENT TYPE: pIC50
Expect pIC50 as a plain number equal to -log10 of the molar concentration.

| COMPOUND | ASSAYED SYSTEM | pIC50 |
| --- | --- | --- |
| NC1CCN(c2c(F)cc3c(=O)c(C(=O)O)cn(C4CC4)c3c2Cl)C1 (configuration not stated) [CLINAFLOXACIN] | DNA gyrase (Staphylococcus aureus, UniProt P0A0K8+P20831) | 4.35 |

Now for another entry.
Query: Could you tell me which pIC50 is on file for O=C(O)c1cn2c3c(c(N4C[C@H](CNC5CC5)[C@H](F)C4)c(F)cc3c1=O)OC[C@@H]2CF ?
Response: 4.51

###

# Test system: Mus musculus
# EXPERIMENT DESCRIPTION: Toxicity in intracerebroventricularly dosed ICR mouse assessed as induction of convulsion after 2 hrs in presence of fenbufen
# Format: organism-based
# RECORDED CONDITIONS: in vivo, icv_or_intrathecal
Activity overview
Give your result in µg as a bare value.

For orientation, consider the following solved cases.
| COMPOUND | READOUT UNIT | Activity |
| --- | --- | --- |
| O=C(O)c1cn2c3c(c(N4CC[C@@H](CNC5CC5)C4)c(F)cc3c1=O)OC[C@@H]2CF | µg | 10 |
| C[C@H]1CN(c2c(F)cc3c(=O)c(C(=O)O)cn4c3c2OC[C@@H]4CF)C[C@@H]1CNC1CC1 | µg | 20 |
| NC1CCN(c2c(F)cc3c(=O)c(C(=O)O)cn(C4CC4)c3c2Cl)C1 (centres undefined) | µg | 5 |
| C[C@@H]1CN(c2c(F)cc3c(=O)c(C(=O)O)cn4c3c2OC[C@@H]4CF)C[C@@H]1CNC1CC1 | µg | 10 |

Moving on to another compound below.
Query: Activity for C[C@H]1COc2c(N3CC[C@@H](CNC4CC4)C3)c(F)cc3c(=O)c(C(=O)O)cn1c23 ?
Response: 20

###

# Tested on: Mus musculus
# EXPERIMENT DESCRIPTION: Toxicity in intracerebroventricularly dosed ICR mouse assessed as induction of convulsion after 2 hrs in absence of fenbufen
# Format: organism-based
# RECORDED CONDITIONS: in vivo, icv_or_intrathecal
MEASUREMENT TYPE: Activity (µg)
Field format: number, assumed µg, no unit text.

Before answering, review these 4 worked examples.
| COMPOUND | Activity / µg |
| --- | --- |
| NC1CCN(c2c(F)cc3c(=O)c(C(=O)O)cn(C4CC4)c3c2Cl)C1 (centres undefined) | 10 |
| O=C(O)c1cn2c3c(c(N4CC[C@@H](CNC5CC5)C4)c(F)cc3c1=O)OC[C@@H]2CF | 10 |
| C[C@H]1CN(c2c(F)cc3c(=O)c(C(=O)O)cn4c3c2OC[C@@H]4CF)C[C@@H]1CNC1CC1 | 40 |
| C[C@H]1COc2c(N3CC[C@@H](CNC4CC4)C3)c(F)cc3c(=O)c(C(=O)O)cn1c23 | 20 |

Pending compound:
Query: Hi! What's the reported Activity for C[C@@H]1CN(c2c(F)cc3c(=O)c(C(=O)O)cn4c3c2OC[C@@H]4CF)C[C@@H]1CNC1CC1 on Mus musculus?
Response: 20

###

# ASSAYED SYSTEM: DNA gyrase (Staphylococcus aureus, UniProt P0A0K8+P20831)
# EXPERIMENT DESCRIPTION: Inhibition of Staphylococcus aureus MS5935 wild type DNA gyrase-mediated supercoiling activity
# Format: protein-complex assay
MEASUREMENT TYPE: IC50 (nM)
Write the number in nM without appending the unit.

| MOLECULE | READOUT UNIT | IC50 |
| --- | --- | --- |
| O=C(O)c1cn2c3c(c(N4C[C@H](CNC5CC5)[C@H](F)C4)c(F)cc3c1=O)OC[C@@H]2CF | nM | 2420 |

Next molecule, please.
Query: Quick one: IC50 for NC1CCN(c2c(F)cc3c(=O)c(C(=O)O)cn(C4CC4)c3c2Cl)C1 (configuration not stated) ?
Response: 3140

###

# System: Enterococcus faecalis
# EXPERIMENT DESCRIPTION: Antibacterial activity against Enterococcus faecalis IID682 after 18 hrs by agar dilution method
# Format: functional
MEASUREMENT TYPE: MIC (µg/mL)
The reply should be a number in µg/mL, with the unit left off.

Query: If you can, please state the reported MIC value of C[C@H]1COc2c(N3C[C@H](CNC4CC4)[C@@H](F)C3)c(F)cc3c(=O)c(C(=O)O)cn1c23 .
Response: 0.125

Query: Same lookup for C[C@H]1CN(c2c(F)cc3c(=O)c(C(=O)O)cn4c3c2OC[C@@H]4C)C[C@@H]1CNC1CC1 , please.
Response: 0.031

Query: Can you check C[C@@H]1CN(c2c(F)cc3c(=O)c(C(=O)O)cn4c3c2OC[C@@H]4C)C[C@@H]1CNC1CC1 next?
Response: 0.063

Query: Same read-out for O=C(O)c1cn(C2CC2)c2cc(N3CCNCC3)c(F)cc2c1=O ?
Response: 0.5
